Target: AmQNS (quinolone synthase) (Aegle marmelos)
Sequence (M1HE54 entry or part of it): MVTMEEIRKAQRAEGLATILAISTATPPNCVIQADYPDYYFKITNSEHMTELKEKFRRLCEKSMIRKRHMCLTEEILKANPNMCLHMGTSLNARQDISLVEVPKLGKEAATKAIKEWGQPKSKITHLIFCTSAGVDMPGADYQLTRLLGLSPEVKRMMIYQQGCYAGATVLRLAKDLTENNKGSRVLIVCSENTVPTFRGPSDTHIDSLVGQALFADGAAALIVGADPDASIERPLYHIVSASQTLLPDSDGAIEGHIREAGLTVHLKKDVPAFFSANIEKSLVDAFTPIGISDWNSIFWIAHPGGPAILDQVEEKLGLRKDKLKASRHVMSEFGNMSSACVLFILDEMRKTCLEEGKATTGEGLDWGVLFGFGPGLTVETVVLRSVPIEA
Assay: Surface plasmon resonance (SPR) AmQNS-substrate interaction studies
Format: binding
Quantity Name: Kd (nM)
Only the number, expressed in nM, is required.

Give the value of Kd reported for the following: CCCC(=O)SCCNC(=O)CCNC(=O)[C@H](O)C(C)(C)COP(=O)(O)OP(=O)(O)OC[C@H]1O[C@@H](n2cnc3c(N)ncnc32)[C@H](O)[C@@H]1OP(=O)(O)O
1370

Taken from paper PMC11093982.
